Test system: IL-6 mRNA expression
Assay: Inhibition of IL-6 mRNA expression in LPS-treated HaCaT cells (real-time PCR)
Type: cell-based, Human
Settings: Homo sapiens, HaCaT; dose-response of normalized IL-6 mRNA expression (FIG. 1); read-out: IC50
Please respond with reported pIC50 for every item in the list.
Give bare numbers, as −log10 of the molar value.

Observe how each entry below is paired with its result.
Cc1ccc2oc(Nc3ccc(NC(=O)CCCNC(=O)OC(C)(C)C)cc3)nc2c1 [Compound 4d] : 10.22
Cc1cccc2oc(Nc3ccc(NC(=O)CCCN)cc3)nc12 [Compound 5c] : 5.79
CC(C)(C)c1ccc2oc(Nc3ccc(NC(=O)CCCN)cc3)nc2c1 [Compound 5f] : 9.35
Cc1ccc2oc(Nc3ccc(NC(=O)CCCN)cc3)nc2c1 [Compound 5d] : 7.49

Next:
[ask] For the compound shown here, COc1cc(NC(=O)CCCN)ccc1Nc1nc2cc(C(C)(C)C)ccc2o1 [Compound 5m] , give the reported pIC50.
[reply] 9.70

----------
Tested on: IL-6 mRNA expression
Assay: Inhibition of IL-6 mRNA expression in LPS-treated HaCaT cells (real-time PCR)
Type: cell-based, Human
Settings: HaCaT cells, 10 μM compound pretreatment then LPS; LPS alone set to 100%
experimental readout: mRNA Expression (%) (10 μM) IL-6

Please review the following examples before continuing.
Cc1ccc2oc(Nc3ccc(NC(=O)CCCN)cc3)nc2c1 [Compound 5d] : 3.39%
Cc1cccc2oc(Nc3ccc(NC(=O)CCCN)cc3)nc12 [Compound 5c] : 2.08%
Cc1ccc2oc(Nc3ccc(NC(=O)CCCNC(=O)OC(C)(C)C)cc3)nc2c1 [Compound 4d] : 2.4%
COc1cc(NC(=O)CCCN)ccc1Nc1nc2cc(C(C)(C)C)ccc2o1 [Compound 5m] : 4.07%

// moving on: another record for mRNA Expression (%) (10 μM) IL-6
[ask] // map CC(C)(C)c1ccc2oc(Nc3ccc(NC(=O)CCCN)cc3)nc2c1 [Compound 5f] to recorded mRNA Expression (%) (10 μM) IL-6 (system: IL-6 mRNA expression)
[reply] 3.26%

These measurements were taken from patent US20260092043A1.
